Hey, just so you know, these numbers are from PubChem BioAssay (NCI).

tested on: RPMI-8226 leukemia; test: NCI tumour cell line growth inhibition, 48 h
Here the recorded GI50 is given for each entry.

Would you please look over these solved cases?
[Q] Find the recorded GI50 belonging to CC(=N\O)/C(C)=N/O.CC(=N\O)/C(C)=N/O.[Fe].[NH2-].c1c[nH]cn1 and report it.
[A] > 100 µM

[Q] Same lookup for Nc1cc(N)c2nc(-c3ccccc3)c(NCc3ccc(Cl)c(Cl)c3)nc2c1 , please.
[A] 1.66 µM

[Q] Do the same for Cc1nn(-c2ccccc2)c2nc(C)n(-c3ccc(Br)cc3)c(=O)c12 please
[A] 0.571 µM

[Q] And then CCOP(=O)(OCC)C(NC(c1ccccc1)c1ccccc1)c1ccc(C(C)C)cc1 (centres undefined) , what is it?
[A] 2.65 µM

[Q] Note, next up: C1=C\CCCCN2CC[C@H]3[C@H](CCCC/C=C\CCCN4C[C@@H](CCCCC/1)C[C@@H]3C4)C2
[A] 2.06 µM

Next:
[Q] Given the entry C(=C\c1ccc(OCC2CO2)cc1)/C1=NCOC1 (centres undefined) , report its measured GI50.
[A] 13.1 µM

[Q] Could you do the same for Cc1ccc(C2C3Cc4ccccc4C3=NN2c2ccc(S(=O)(=O)NC(=O)Nc3ccccc3)cc2)cc1 (centres undefined) , please?
[A] 15 µM

[Q] Moving on to CC(=O)/C=C/c1ccc(N(CCO)Cc2ccc(C(C)(C)C)cc2)cc1
[A] 28.2 µM

[Q] Another: Nc1no[n+]([O-])c1-c1nnc2c(n1)-c1ccccc1C2=O
[A] 2.76 µM

[Q] And what about the molecule O=c1[nH]c2ccccc2n1C1CCN(CCOc2ccccc2)CC1 ?
[A] 9.28 µM

----------
system: MCF7 breast; assay: NCI tumour cell line growth inhibition, 48 h
ASSAY_METRIC: TGI

[Q] Which TGI reading was recorded for the compound CCOC(=O)CCSC1=CC(=O)c2nc3ccccc3c3ccnc1c23 ?
[A] 38.3 µM

[Q] Continue with NC(Cc1c[nH]c2cccc(F)c12)C(=O)O (stereo unspecified)
[A] 1650 µM

[Q] Follow-up entry: COC(=O)[C@H](CCCCNC(=O)OCc1ccccc1)NC(=O)[C@@H](NC(=O)Nc1cc(C(F)(F)F)cc(C(F)(F)F)c1)C(C)C
[A] > 10 µM

[Q] Same question, C[C@@H](Oc1cc(-c2cnn(C3CCNCC3)c2)cnc1N)c1c(Cl)cc(F)cc1Cl this time
[A] 2.12 µM

[Q] Also CC(=O)N1N=C(c2ccc3ccccc3c2O)CC1c1ccc(N(C)C)cc1 (stereo unspecified) , if possible.
[A] > 100 µM

***
[Q] Report TGI for COC(=O)C1=COC2OC3CC1C2C(C)O3 (stereo unspecified) please.
[A] > 100 µM

[Q] Also COc1ccc(NC(=O)NNS(=O)(=O)c2ccc(C)cc2)cc1 , if possible.
[A] > 100 µM

[Q] Same again, this time with Nc1ncnc2c1ncn2CCCCC(=O)O
[A] > 100 µM

[Q] Same for C/C=C(\C)C(=O)O[C@@H]1C=CC(=O)O[C@H]1CNC(=O)[C@H](C)O
[A] 46.7 µM

[Q] Now try CCOC(=O)C1=NNC(C(=O)c2ccccc2)C1c1ccccc1 (stereo unspecified) .
[A] 5.82 µM

[Q] Subsequent entry: COc1ccc2c(c1)C(=O)c1c-2n(CCCCl)c(=O)c2cc(N)ccc12
[A] > 100 µM

[Q] And for COc1cc(-c2ccccc2)cn2c1nc1ccccc12 ?
[A] 35.4 µM
